TARGET_ENTITY: ACVR1 (human) (UniProt Q04771)
Sequence (Q04771 whole entry, looked up): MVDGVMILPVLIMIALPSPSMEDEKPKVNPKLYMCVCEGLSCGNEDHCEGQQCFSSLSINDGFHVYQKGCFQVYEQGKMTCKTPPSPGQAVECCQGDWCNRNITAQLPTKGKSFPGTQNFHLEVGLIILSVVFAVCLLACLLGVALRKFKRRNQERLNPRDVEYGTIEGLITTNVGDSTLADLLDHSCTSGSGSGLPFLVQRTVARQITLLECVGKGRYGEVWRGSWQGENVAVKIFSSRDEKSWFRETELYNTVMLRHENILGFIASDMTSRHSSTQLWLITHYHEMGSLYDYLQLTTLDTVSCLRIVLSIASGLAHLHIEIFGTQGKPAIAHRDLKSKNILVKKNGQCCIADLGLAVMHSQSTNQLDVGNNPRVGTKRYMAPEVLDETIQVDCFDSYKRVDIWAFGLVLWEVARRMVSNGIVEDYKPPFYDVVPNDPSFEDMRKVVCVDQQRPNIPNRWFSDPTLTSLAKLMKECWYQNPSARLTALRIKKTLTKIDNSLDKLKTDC
PROCEDURE_SUMMARY: radiometric filter-binding kinase assay, Kinase HotSpot
RUN_PARAMETERS: compound 0.5 µM; ATP 10 µM
Give measured residual activity for each item. Keep answers brief.
One number for each entry, in %.

Below, 5 compounds whose answers are already recorded.
COc1ccc(S(=O)(=O)N(CCO)c2ccccc2CN(C)C/C=C/c2ccc(Cl)cc2)cc1 ... 90.6
CO[C@@H]1[C@H](N(C)C(=O)c2ccccc2)C[C@H]2O[C@]1(C)n1c3ccccc3c3c4c(c5c6ccccc6n2c5c31)C(=O)NC4 ... 95.5
Cc1nc(-c2ccccc2)c(-c2ccncc2)o1 ... 104
CC(C)(C)c1cc(C=C(C#N)C#N)cc(Br)c1O ... 102
CCCCc1c(-c2ccc(OC)cc2)[nH]c2nccnc12 ... 86.9

Dear colleague, could you please provide residual activity for the compounds listed below?
1. COc1ccc2c(c1)/C(=C/c1cnc[nH]1)C(O)=N2
2. CS(=O)(=O)CCNCc1ccc(-c2ccc3ncnc(Nc4ccc(OCc5cccc(F)c5)c(Cl)c4)c3c2)o1
3. Cc1cncc2cccc(S(=O)(=O)N3CCCN(C(=O)CN)C[C@H]3C)c12
4. Cc1cccc(-c2nc(C(C)(C)C)[nH]c2-c2ccc3c(c2)OCO3)n1

[105, 106, 95.8, 96.4]

residual activity for Fc1ccc(-c2nc3n(c2-c2ccncc2)CCS3)cc1 ?
94.2
